Test: In Vitro Assays for IDH1m (R132H or R132C) Inhibitors: In the primary reaction, the reduction of α-KG acid to 2-HG is accompanied by a concomitant oxidation of NADPH to NADP. The amount of NADPH remaining at the end of the reaction time is measured in a secondary diaphorase/resazurin reaction in which the NADPH is consumed in a 1:1 molar ratio with the conversion of resazurin to the highly fluorescent resorufin. […] The mixture of compound, enzyme, and cofactor is pre-incubated at room temperature for 1 hr prior to the addition of alpha-ketoglutarate. To perform the secondary reaction, 10 uL of 1× buffer containing 36 μg/ml diaphorase and 30 mM resazurin is added to the primary reaction and incubated for a further 5 minutes at 25° C. Florescence is read on a Spectramax platereader at Ex 544 Em 590. Compounds or compound dilutions are prepared in 100% DMSO concentration and diluted 1:50 into the final reaction. IDH1 wt/IDH1 R132C is assayed under similar conditions except that 1× Buffer is 50 mM K2HPO4, pH 6.5; 10 mM MgCl2; 10% glycerol; 0.03% (w/v) bovine serum albumin and final concentrations are 0.4 ug/mL (4.3 nM) IDH1 wt/IDH1 R132C heterodimer, 0.02 mM alpha-ketoglutarate, 4 uM NADPH, and either 300 μM NADP (saturated) or 30 μM NADP (without saturation). IC50s are determined.IDH1 or IDH2 wildtype (wt) and mutant heterodimers are expressed and purified by methods known in the art. For example, IDH1wt/R132m heterodimer is expressed and purified as follows. Co-expression of IDH1wt-his and IDH1R132C-flag is carried out in sf9 insect cells. Cells (25 g) are resuspended in 250 ml of 50 mM Tris, 500 mM NaCl, pH7.4, at 4° C. with stirring. Cells are disrupted with 4 passes through an M-Y110 Micro fluidizer (Microfluidics) set to 500 psi, and then centrifuged at 22,000 rcf for 20 min at 4° C. The supernatant is harvested and loaded at 15 cm/h on a Histrap FF 5*1 ml column (GE) which is equilibrated with 50 mM Tris, 500 mM NaCl, pH7.4. Host cell contaminants are removed by washing the column with equilibration buffer followed by equilibration buffer containing 20 mM imidazole and 60 mM imidazole to baseline. IDH1wt-his homodimer and IDH1wt-his/IDH1R132C-flag are eluted by equilibration buffer containing 250 mM imidazole. Fractions eluted by 250 mM imidazole are pooled together and loaded at 15 cm/h onto a column pre-packed with 10 ml ANTI-FLAG® M2 Affinity Gel (Sigma), the column is equilibrated with 50 mM Tris, 500 mM NaCl, pH7.4. After washing with equilibration buffer, IDH1wt-his/IDH1R132C-flag heterodimer is eluted by equilibration buffer containing flag peptide (0.2 mg/ml). Aliquots of IDH1wt-his/IDH1R132C-flag are flash frozen in liquid N2 and stored at −80° C. Same conditions are used for the purification of IDH1wt-his/IDH1R132H-flag.
Exercise: for every item that follows, state its recorded IC50.

Output IC50 of N#CC1(c2cc(Nc3nc(NC4CCC(F)(F)C4)nc(-c4cccc(C(F)(F)F)n4)n3)ccn2)CC1 (centres undefined)
< 50 nM

Identify the reported IC50 for the following entry. N#CC1(c2cc(Nc3nc(NC4CCC(F)(F)CC4)nc(-c4cccc(C(F)(F)F)n4)n3)ccn2)CC1
< 50 nM
